This listing pairs sequences with measured total protein half-life in vivo.
# Test Details: total protein half-life in vivo (active degradation + dilution); higher = more stable protein
# Experimental Setup: E. coli NCM3722 delta-clpP; growth: N-lim chemostat; doubling time 6 h
Provide only the numeric value, understood in h.

[
  {
    "Residue Codes": "MPSIRLADLAQQLDAELHGDGDIVITGVASMQSAQTGHITFMVNPKYREHLGLCQASAVVMTQDDLPFAKSAALVVKNPYLTYARMAQILDTTPQPAQNIAPSAVIDATAKLGNNVSIGANAVIESGVELGDNVIIGAGCFVGKNSKIGAGSRLWANVTIYHEIQIGQNCLIQSGTVVGADGFGYANDRGNWVKIPQIGRVIIGDRVEIGACTTIDRGALDDTIIGNGVIIDNQCQIAHNVVIGDNTAVAGGVIMAGSLKIGRYCMIGGASVINGHMEICDKVTVTGMGMVMRPITEPGVYSSGIPLQPNKVWRKTAALVMNIDDMSKRLKSLERKVNQQD",
    "Unit Descriptor": "h",
    "Recorded Number": 6.31
  }
]

Can you look up the measured total protein half-life in vivo of MRLVQLSRHSIAFPSPEGALREPNGLLALGGDLSPARLLMAYQRGIFPWFSPGDPILWWSPDPRAVLWPESLHISRSMKRFHKRSPYRVTMNYAFGQVIEGCASDREEGTWITRGVVEAYHRLHELGHAHSIEVWREDELVGGMYGVAQGTLFCGESMFSRMENASKTALLVFCEEFIGHGGKLIDCQVLNDHTASLGACEIPRRDYLNYLNQMRLGRLPNNFWVPRCLFSPQE [P0A8P1] for me?
4.09

Item MARIIVVTSGKGGVGKTTSSAAIATGLAQKGKKTVVIDFDIGLRNLDLIMGCERRVVYDFVNVIQGDATLNQALIKDKRTENLYILPASQTRDKDALTREGVAKVLDDLKAMDFEFIVCDSPAGIETGALMALYFADEAIITTNPEVSSVRDSDRILGILASKSRRAENGEEPIKEHLLLTRYNPGRVSRGDMLSMEDVLEILRIKLVGVIPEDQSVLRASNQGEPVILDINADAGKAYADTVERLLGEERPFRFIEEEKKGFLKRLFGG [P0AEZ3] has what recorded total protein half-life in vivo?
5.22
